# assayed_target: Vasopressin V1b receptor (Homo sapiens)
# assay_summary: Agonist activity at human V1b receptor expressed in CHO cells assessed as calcium mobilization measured after 30 mins by Fluo-4-AM dye based FLIPR assay
Bridge positions count the residues as written; N and C are the ends. Square brackets hold non-standard residues; d marks the D form. Peptide text beside a SMILES is read from it. βAla = NCCC(=O)O; Mpa = O=C(O)CCS
Measured EC50, listed per entry.

Illustrative cases are given below, each with its answer.
{"compound": "CC[C@H](C)[C@@H]1NC(=O)[C@H](Cc2ccc(O)cc2)NC(=O)CCSSC[C@@H](C(=O)N[C@@H](C)C(=O)N[C@@H](CC(C)C)C(=O)NCC(N)=O)NC(=O)[C@H](CC(N)=O)NC(=O)[C@H](CCC(N)=O)NC1=O ([Mpa]YIQNCALG-NH2; disulfide 1-6)", "recorded_value": "> 0.1 µM"}
{"compound": "CC[C@H](C)[C@@H]1NC(=O)[C@H](Cc2ccc(O)cc2)NC(=O)CCNC(=O)C[C@@H](C(=O)N2CCC[C@H]2C(=O)N[C@@H](CC(C)C)C(=O)NCC(N)=O)NC(=O)[C@H](CC(N)=O)NC(=O)[C@H](CCC(N)=O)NC1=O ([βAla]YIQNDPLG-NH2; lactam N-6)", "recorded_value": "> 0.1 µM"}
{"compound": "CC[C@H](C)[C@@H]1NC(=O)[C@H](Cc2ccc(O)cc2)NC(=O)CCSSC[C@@H](C(=O)N2CCC[C@H]2C(=O)N[C@@H](CC(C)C)C(=O)NCC(N)=O)NC(=O)[C@H](CC(N)=O)NC(=O)[C@H](C)NC1=O ([Mpa]YIANCPLG-NH2; disulfide 1-6)", "recorded_value": "0.069 µM"}

Please look up its EC50: CC[C@H](C)[C@@H]1NC(=O)[C@H](Cc2ccc(O)cc2)NC(=O)CCSSC[C@@H](C(=O)N2CCCCC2C(=O)N[C@@H](CC(C)C)C(=O)NCC(N)=O)NC(=O)[C@H](CC(N)=O)NC(=O)[C@H](CCC(N)=O)NC1=O (some centres undefined) 0.004 µM

====

# assayed_target: Vasopressin V1b receptor (Homo sapiens, UniProt P47901)
# Sequence (P47901 whole entry): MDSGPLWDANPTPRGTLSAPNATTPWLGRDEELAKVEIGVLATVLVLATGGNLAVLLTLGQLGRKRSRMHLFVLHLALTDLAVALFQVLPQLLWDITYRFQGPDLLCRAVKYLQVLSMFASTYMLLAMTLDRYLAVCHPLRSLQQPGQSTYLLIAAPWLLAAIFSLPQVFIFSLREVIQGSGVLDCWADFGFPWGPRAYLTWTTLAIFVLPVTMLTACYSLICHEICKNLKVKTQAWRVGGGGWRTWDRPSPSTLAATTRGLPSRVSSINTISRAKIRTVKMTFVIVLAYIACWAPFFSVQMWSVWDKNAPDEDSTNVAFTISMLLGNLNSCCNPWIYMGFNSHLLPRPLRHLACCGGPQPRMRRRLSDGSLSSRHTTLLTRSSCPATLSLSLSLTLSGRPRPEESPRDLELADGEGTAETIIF
# assay_summary: Agonist activity at human V1b receptor expressed in CHO cells assessed as calcium mobilization measured after 30 mins by Fluo-4-AM dye based FLIPR assay
Numbered stars: 1 amine (or outer) side, 2 acyl side, 3 side chain; on linkers, the order of the positions; unused ones are H or OH. Bridge positions count the residues as written; N and C are the ends. Square brackets hold non-standard residues; d marks the D form. Peptide text beside a SMILES is read from it. Suc = O=C(CCC(=O)[*:2])[*:1]; Dap = NC[C@H](N)C(=O)O; Mpa = O=C(O)CCS
endpoint_name: EC50

{"compound": "CC[C@H](C)[C@@H]1NC(=O)[C@H](Cc2ccc(O)cc2)NC(=O)CCSSC[C@@H](C(=O)NCC(=O)N[C@@H](CC(C)C)C(=O)NCC(N)=O)NC(=O)[C@H](CC(N)=O)NC(=O)[C@H](CCC(N)=O)NC1=O ([Mpa]YIQNCGLG-NH2; disulfide 1-6)", "EC50": "> 100 nM"}

Please look up its EC50: CC[C@H](C)[C@@H]1NC(=O)[C@H](Cc2ccc(O)cc2)NC(=O)CCC(=O)NC[C@@H](C(=O)N2CCC[C@H]2C(=O)N[C@@H](CC(C)C)C(=O)NCC(N)=O)NC(=O)[C@H](CC(N)=O)NC(=O)[C@H](CCC(N)=O)NC1=O (YIQN[Dap]PLG-NH2; linker N-5 via Suc) > 100 nM

====

# Species on record: Homo sapiens
# assay_summary: Selectivity ratio of EC50 for human V1a receptor to EC50 for human OTR
Bridge positions count the residues as written; N and C are the ends. Square brackets hold non-standard residues; d marks the D form. Peptide text beside a SMILES is read from it. Mpa = O=C(O)CCS; Sar = CNCC(=O)O
endpoint_name: Ratio EC50

Illustrative cases are given below, each with its answer.
{"molecule": "CC[C@H](C)[C@@H]1NC(=O)[C@H](Cc2ccc(O)cc2)NC(=O)CCSSC[C@@H](C(=O)N2CCC[C@H]2C(=O)N[C@@H](CCCNC(=N)N)C(=O)NCC(N)=O)NC(=O)[C@H](CC(N)=O)NC(=O)[C@H](CCC(N)=O)NC1=O ([Mpa]YIQNCPRG-NH2; disulfide 1-6)", "Ratio EC50": 4}
{"molecule": "CC[C@H](C)[C@@H]1NC(=O)[C@H](Cc2ccc(O)cc2)NC(=O)CCSSC[C@@H](C(=O)N[C@@H](C)C(=O)N[C@@H](CC(C)C)C(=O)NCC(N)=O)NC(=O)[C@H](CC(N)=O)NC(=O)[C@H](CCC(N)=O)NC1=O ([Mpa]YIQNCALG-NH2; disulfide 1-6)", "Ratio EC50": "> 1000"}

Please look up its Ratio EC50: CC[C@H](C)[C@@H]1NC(=O)[C@H](Cc2ccc(O)cc2)NC(=O)CCSSC[C@@H](C(=O)N(C)CC(=O)N[C@@H](CC(C)C)C(=O)NCC(N)=O)NC(=O)[C@H](CC(N)=O)NC(=O)[C@H](CCC(N)=O)NC1=O ([Mpa]YIQNC[Sar]LG-NH2; disulfide 1-6) > 10000

Please look up its Ratio EC50: CC[C@H](C)[C@@H]1NC(=O)[C@H](Cc2ccc(O)cc2)NC(=O)CCSSC[C@@H](C(=O)N2CCC[C@H]2C(=O)N[C@@H](CC(C)C)C(=O)N[C@@H](CCCNC(=N)N)C(N)=O)NC(=O)[C@H](CC(N)=O)NC(=O)[C@H](CCC(N)=O)NC1=O ([Mpa]YIQNCPLR-NH2; disulfide 1-6) > 100

Please look up its Ratio EC50: CC[C@H](C)[C@@H]1NC(=O)[C@H](Cc2ccccc2)NC(=O)CCSSC[C@@H](C(=O)N2CCC[C@H]2C(=O)N[C@@H](CC(C)C)C(=O)NCC(N)=O)NC(=O)[C@H](CC(N)=O)NC(=O)[C@H](CCC(N)=O)NC1=O ([Mpa]FIQNCPLG-NH2; disulfide 1-6) > 100

Please look up its Ratio EC50: CC[C@H](C)[C@@H]1NC(=O)[C@H](Cc2ccc(O)cc2)NC(=O)CCSSC[C@@H](C(=O)N2CCC[C@H]2C(=O)N[C@@H](CC(C)C)C(=O)N[C@@H](CCC(=O)O)C(N)=O)NC(=O)[C@H](CC(N)=O)NC(=O)[C@H](CCC(N)=O)NC1=O ([Mpa]YIQNCPLE-NH2; disulfide 1-6) > 10

Please look up its Ratio EC50: CC[C@H](C)[C@@H]1NC(=O)[C@H](Cc2ccc(O)cc2)NC(=O)CCSSC[C@@H](C(=O)N[C@@H](CCC(=O)O)C(=O)N[C@@H](CC(C)C)C(=O)NCC(N)=O)NC(=O)[C@H](CC(N)=O)NC(=O)[C@H](CCC(N)=O)NC1=O ([Mpa]YIQNCELG-NH2; disulfide 1-6) > 100

====

# assayed_target: Vasopressin V1a receptor (Homo sapiens, UniProt P37288)
# Sequence (P37288 whole entry): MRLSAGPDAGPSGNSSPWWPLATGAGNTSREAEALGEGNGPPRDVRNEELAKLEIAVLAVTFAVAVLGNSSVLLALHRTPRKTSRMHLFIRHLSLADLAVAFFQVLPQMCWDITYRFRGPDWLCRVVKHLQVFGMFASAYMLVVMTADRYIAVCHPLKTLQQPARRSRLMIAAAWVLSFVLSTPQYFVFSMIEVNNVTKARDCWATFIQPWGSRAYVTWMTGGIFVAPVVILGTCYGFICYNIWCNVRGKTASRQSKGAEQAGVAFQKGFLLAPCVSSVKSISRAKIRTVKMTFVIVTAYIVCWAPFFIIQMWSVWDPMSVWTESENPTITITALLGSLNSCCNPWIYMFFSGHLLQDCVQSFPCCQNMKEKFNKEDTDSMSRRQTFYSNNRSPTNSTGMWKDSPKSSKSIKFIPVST
# assay_summary: Agonist activity at human V1a receptor expressed in CHO cells assessed as calcium mobilization measured after 30 mins by Fluo-4-AM dye based FLIPR assay
# Format: cell-based
Numbered stars: 1 amine (or outer) side, 2 acyl side, 3 side chain; on linkers, the order of the positions; unused ones are H or OH. Bridge positions count the residues as written; N and C are the ends. Square brackets hold non-standard residues; d marks the D form. Peptide text beside a SMILES is read from it. Suc = O=C(CCC(=O)[*:2])[*:1]; Dap = NC[C@H](N)C(=O)O; Mpa = O=C(O)CCS
endpoint_name: EC50

Illustrative cases are given below, each with its answer.
{"compound": "CC[C@H](C)[C@@H]1NC(=O)[C@H](CCCNC(=N)N)NC(=O)CCSSC[C@@H](C(=O)N2CCC[C@H]2C(=O)N[C@@H](CC(C)C)C(=O)NCC(N)=O)NC(=O)[C@H](CC(N)=O)NC(=O)[C@H](CCC(N)=O)NC1=O ([Mpa]RIQNCPLG-NH2; disulfide 1-6)", "recorded_value": "> 100 nM"}
{"compound": "CC[C@H](C)[C@@H]1NC(=O)[C@H](Cc2ccc(O)cc2)NC(=O)CCC(=O)NC[C@@H](C(=O)N2CCC[C@H]2C(=O)N[C@@H](CC(C)C)C(=O)NCC(N)=O)NC(=O)[C@H](CC(N)=O)NC(=O)[C@H](CCC(N)=O)NC1=O (YIQN[Dap]PLG-NH2; linker N-5 via Suc)", "recorded_value": "> 100 nM"}
{"compound": "CCCCCCC(NC(=O)[C@@H]1CCCN1C(=O)[C@@H]1CSSCCC(=O)N[C@@H](Cc2ccc(O)cc2)C(=O)N[C@@H]([C@@H](C)CC)C(=O)N[C@@H](CCC(N)=O)C(=O)N[C@@H](CC(N)=O)C(=O)N1)C(=O)NCC(N)=O (some centres undefined)", "recorded_value": "3.1 nM"}
{"compound": "CC[C@H](C)[C@@H]1NC(=O)[C@H](Cc2ccc(O)cc2)NC(=O)CCSSC[C@@H](C(=O)N2CCC[C@H]2C(=O)N[C@H](C(=O)NCC(N)=O)C(C)C)NC(=O)[C@H](CC(N)=O)NC(=O)[C@H](CCC(N)=O)NC1=O ([Mpa]YIQNCPVG-NH2; disulfide 1-6)", "recorded_value": "5.1 nM"}
{"compound": "CC[C@H](C)[C@@H]1NC(=O)[C@H](Cc2ccc(O)cc2)NC(=O)CCSSC[C@@H](C(=O)N2CCC[C@H]2C(=O)N[C@@H](CC(C)C)C(=O)N[C@@H](CCC(=O)O)C(N)=O)NC(=O)[C@H](CC(N)=O)NC(=O)[C@H](CCC(N)=O)NC1=O ([Mpa]YIQNCPLE-NH2; disulfide 1-6)", "recorded_value": "> 100 nM"}

Turning to the following compound.
Please look up its EC50: CC[C@H](C)[C@@H]1NC(=O)[C@H](Cc2ccc(O)cc2)NC(=O)CCSSC[C@@H](C(=O)N[C@@H](CC(C)C)C(=O)N[C@@H](CC(C)C)C(=O)NCC(N)=O)NC(=O)[C@H](CC(N)=O)NC(=O)[C@H](CCC(N)=O)NC1=O ([Mpa]YIQNCLLG-NH2; disulfide 1-6) > 100 nM
